# assayRemarks: chemical genetic growth profiling, strain panel (AID 1159580);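 note: tested at 20 µM; growth read once vehicle control cultures reached saturation at 30 °C; 1 = growth at the plate median or of vehicle wells; lower values mean less growth of the strain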
# runParameters: S. cerevisiae deletion strains, growth OD, locus YER002W, strain NOP16, hits give low values
In all, about 5,500 compounds went through this assay and about 2,000 (36%) were called active. Not shown: some 18% with an inconclusive outcome. The list shows a part of the results.
readoutKind: normalized growth

Reported normalized growth, molecule Nc1ncnc2c1ncn2[C@@H]1O[C@H](COP(=O)(O)CP(=O)(O)OP(=O)(O)O)[C@H](O)C1O (stereo partly specified) : ____ 0.983 (inactive)

Reported normalized growth, molecule NCC(CP(=O)(O)O)c1ccc(Cl)cc1 (stereo unspecified) : ____ 0.991 (inactive)

Reported normalized growth, molecule COc1cc(CNC(=O)CCCCCCC(C)C)ccc1O : ____ 1 (inactive)

Reported normalized growth, molecule COc1ccc2c(c1)[C@@]13CCCC[C@H]1[C@@H](C2)NCC3 : ____ 1.02 (inactive)

Reported normalized growth, molecule O=c1[nH]c(=O)n([C@H]2C[C@H](O)[C@@H](CO)O2)cc1Br : ____ 1.01 (inactive)

Reported normalized growth, molecule Nc1ncnc2c1ncn2[C@@H]1O[C@H](CO)[C@H](O)C1O (stereo partly specified) : ____ 1.01 (inactive)
